# assay system: AF9 (497-568), recombinant C-terminal domain of human AF9 (human, UniProt P42568)
# protocol summary: competitive SPR; peptide pre-incubated with AF9 (500 nM), over immobilised Mocr-DOT1L (826-1095)
experimental readout: IC50

Ac-LMVKITLDLLSRIP-NH2 [AF4 14 mer peptide, Ac-LMVKITLDLLSRIP-NH2] : 200 nM
Ac-LPISIALSTV-NH2 [P870A, alanine mutated DOT1L 10mer peptide] : 2800 nM

Give IC50 for the following binder: Ac-LPISIPLSTVQPNKLP-NH2 [DOT1L 16 mer peptide, Ac-LPISIPLSTVQPNKLP-NH2 (a.a. 865-880)]
320 nM

Give IC50 for the following binder: Ac-LPISAPLSTV-NH2 [I869A, alanine mutated DOT1L 10mer peptide]
> 200000 nM
